Origin of values: patent US20130259876A1

assay-target: T1, HLA-B*2705 heavy chain with human beta 2 microglobulin on C1R-neo-B*2705 cells (human, UniProt P01889 25-362; P61769 21-119)
T1 construct: also called C1R-neo-HLA-B27
method: flow cytometry, C1R-neo-HLA-B27 cells, antibody 1 ug/ml
parameter-measured: MFI (MFI)
All answers are understood in MFI, so give the number only.

{"binder": "H4H2538P (antibody, V domains shown) VH: QVQLVQSGAEVKKPGASVKVSCKASGYTFTDYYMHWVRQAPGQGLEWIGWINPNSGGSNFAQKFQGRVTMTRDTSISTAYMELSRLRSDDTAVYYCARKAGYTSSWFDYWGQGTLVTVSS VL: DIVMTQSPDSLAVSLGERATINCKSSQSVLYSFNNKNYLSWYQQKPGQPPKLLIYWASTRESGVPDRFSGSGSGTDFTLTISSLQAEDAAVYYCQQYYSMITFGQGTRLEIK", "MFI, MFI": 101}
{"binder": "H4H2718N (antibody, V domains shown) VH: EVQLVESGGGLVQPGRSLRLSCAASGFTFDEYAMHWVRQVPGKGLEWVSGISRNSGTIGYVDSVLGRFTISRDNAKNSLYLQMNSLRPEDTALYYCAKDKGWLLGMDVWGQGTTVTVSS VL: DIQMTQSPSSLSASVGDRVTITCRASQAIRNDLGWYQQKPGKAPKRLIYAASSLQSGVPSRFSGSGSGTEFALTISSLQPEDFATYYCLQYNSYLYTFGQGTKLEIK", "MFI, MFI": 36.5}
{"binder": "H4H2524P (antibody, V domains shown) VH: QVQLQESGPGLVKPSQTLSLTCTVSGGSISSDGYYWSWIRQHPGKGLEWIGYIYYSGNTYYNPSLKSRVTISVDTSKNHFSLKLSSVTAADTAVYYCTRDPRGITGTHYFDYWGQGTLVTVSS VL: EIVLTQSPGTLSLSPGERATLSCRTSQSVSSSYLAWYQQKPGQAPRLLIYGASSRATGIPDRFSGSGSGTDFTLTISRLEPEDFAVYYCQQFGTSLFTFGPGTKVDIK", "MFI, MFI": 51.3}

Annotate the binder H4H2499N (antibody, V domains shown) VH: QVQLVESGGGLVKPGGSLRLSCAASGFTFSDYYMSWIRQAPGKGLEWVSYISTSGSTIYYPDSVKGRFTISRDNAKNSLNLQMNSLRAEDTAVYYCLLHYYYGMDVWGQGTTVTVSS VL: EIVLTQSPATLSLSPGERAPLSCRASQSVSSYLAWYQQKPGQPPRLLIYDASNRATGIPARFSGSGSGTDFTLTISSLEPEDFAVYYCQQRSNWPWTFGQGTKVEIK with its measured MFI. 89.4

Using the record for H4H2560P (antibody, V domains shown) VH: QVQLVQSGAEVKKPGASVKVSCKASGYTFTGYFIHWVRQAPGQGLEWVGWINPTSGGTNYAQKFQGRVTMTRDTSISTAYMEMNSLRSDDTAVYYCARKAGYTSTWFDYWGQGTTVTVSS VL: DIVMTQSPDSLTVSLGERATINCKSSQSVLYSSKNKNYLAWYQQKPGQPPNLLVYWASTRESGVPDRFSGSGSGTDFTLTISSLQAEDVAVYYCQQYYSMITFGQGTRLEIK , state its measured MFI. 110
